Target: recombinant BRD4 BD2 (Homo sapiens, UniProt O60885)
Construct: for recombinant BRD4 BD1 and BRD4 BD2 proteins
Assay: Competitive fluorescence-polarization (FP) binding assay, BRD4 BD2
Settings: competitive FP, Table 3; read-out: Binding Affinity BRD4-BD2 IC50
metric: pIC50
Lab note: report pIC50 as minus log10 of the concentration in molar units, number only.

Q) Report pIC50 for Cc1c(C#Cc2ccc(CCCCO)cn2)sc2c1C(c1ccc(Cl)cc1)=N[C@@H](C)c1nnc(C)n1-2 [Cpd. No. 13] please.
A) 7.96

---

Biological target: recombinant BRD4 BD1 (Homo sapiens, UniProt O60885)
Construct: for recombinant BRD4 BD1 and BRD4 BD2 proteins
Test: Competitive fluorescence-polarization (FP) binding assay, BRD4 BD1
Conditions: competitive FP, Table 6; read-out: IC50 as determinined in FP assays BRD4 BD1
Known IC50 of a selection of molecules
Field format: number, assumed nM, no unit text.

Answered cases to consult:
Q) Report IC50 for `Cc1nnc(C[C@@H]2N=C(c3ccc(Cl)cc3)c3c(sc(C#Cc4ccccn4)c3C)-n3c(C)nnc32)s1` please.
A) 7.88

Q) Report IC50 for `Cc1c(C#Cc2ccccn2)sc2c1C(c1ccc(Cl)cc1)=N[C@@H](Cc1nnc(C3CC3)o1)c1nnc(C)n1-2` please.
A) 11.3

Q) Report IC50 for `Cc1c(C#Cc2cccnc2)sc2c1C(c1ccc(Cl)cc1)=N[C@@H](CC(=O)N1CCN(C)CC1)c1nnc(C)n1-2` please.
A) 9.6

Q) Report IC50 for `Cc1nnc(C[C@@H]2N=C(c3ccc(Cl)cc3)c3c(sc(C#Cc4ccccn4)c3C)-n3c(C)nnc32)o1` please.
A) 9.4

Please turn your attention to the following entry.
Q) Report IC50 for `Cc1nnc(C[C@@H]2N=C(c3ccc(Cl)cc3)c3c(sc(C#CC4CCNCC4)c3C)-n3c(C)nnc32)o1` please.
A) 49.9

---

Biological target: recombinant BRD4 BD2 (Homo sapiens, UniProt O60885)
Construct: for recombinant BRD4 BD1 and BRD4 BD2 proteins
Assay: Competitive fluorescence-polarization (FP) binding assay, BRD4 BD2
Known pIC50 of a selection of molecules
Lab note: report pIC50 as minus log10 of the concentration in molar units, number only.

Q) Report pIC50 for `Cc1c(C#Cc2cnn(CCC(N)=O)c2)sc2c1C(c1ccc(Cl)cc1)=N[C@@H](C)c1nnc(C)n1-2` please.
A) 7.81

Next:
Q) Report pIC50 for `Cc1c(C#Cc2nccs2)sc2c1C(c1ccc(Cl)cc1)=N[C@@H](C)c1nnc(C)n1-2` please.
A) 7.66

Q) Report pIC50 for `Cc1c(C#CC2CCCC2)sc2c1C(c1ccc(Cl)cc1)=N[C@@H](C)c1nnc(C)n1-2` please.
A) 7.99

---

Known concentration at 3 h of a selection of compounds
Assay: Plasma exposure after oral gavage in mice, LC-MS/MS
Type: in vivo
Settings: mouse, plasma; mice, oral gavage 25 mg/kg, 3 h; read-out: Plasma concentration (ng/mL) 3 h
Field format: number, assumed ng/mL, no unit text.

Answered cases to consult:
Q) Report concentration at 3 h for `Cc1nnc(C[C@@H]2N=C(c3ccc(Cl)cc3)c3c(sc(C#CC4CCN(C)CC4)c3C)-n3c(C)nnc32)o1` please.
A) 384

Q) Report concentration at 3 h for `Cc1c(C#CC2CCOCC2)sc2c1C(c1ccc(Cl)cc1)=N[C@@H](CC(=O)N1CCC(O)CC1)c1nnc(C)n1-2` please.
A) 2120

Q) Report concentration at 3 h for `Cc1c(C#Cc2ccccn2)sc2c1C(c1ccc(Cl)cc1)=N[C@@H](CC(=O)Nc1ccc(O)cc1)c1nnc(C)n1-2` please.
A) 407

Please turn your attention to the following entry.
Q) Report concentration at 3 h for `CCNC(=O)C[C@@H]1N=C(c2ccc(Cl)cc2)c2c(sc(C#Cc3ccccn3)c2C)-n2c(C)nnc21` please.
A) 1160

---

System: MDA-MB-231
Experiment: Cell growth inhibition, 4-day proliferation assay, MDA-MB-231
Assay type: cell-based
Settings: Homo sapiens, MDA-MB-231; WST-8 assay, Table 7; read-out: Cell growth inhibition (IC50 (nM)) MDA-MB-231
Procedure: The effect of representative Compounds of the Disclosure on cell viability was determined in a 4-day proliferation assay. Cells were maintained in the appropriate culture medium with 100/0 FBS at 37° C. and an atmosphere of 5% CO2. All the cell lines were used within three months of thawing fresh vials. […]
Known IC50 of a selection of compounds

Answered cases to consult:
Q) Report IC50 for `Cc1c(C#Cc2cccnc2)sc2c1C(c1ccc(Cl)cc1)=N[C@@H](CC(=O)N1CCC(O)CC1)c1nnc(C)n1-2` please.
A) 79.6 nM

Q) Report IC50 for `Cc1c(C#Cc2cccnc2)sc2c1C(c1ccc(Cl)cc1)=N[C@@H](CC(C)C)c1nnc(C)n1-2` please.
A) 670 nM

Q) Report IC50 for `CCNC(=O)C[C@@H]1N=C(c2ccc(Cl)cc2)c2c(sc(C#Cc3cnn(C)c3)c2C)-n2c(C)nnc21` please.
A) 129 nM

Q) Report IC50 for `Cc1c(C#Cc2ccccn2)sc2c1C(c1ccc(Cl)cc1)=N[C@@H](CC(=O)N1CCN(C)CC1)c1nnc(C)n1-2` please.
A) 38.1 nM

Q) Report IC50 for `Cc1c(C#Cc2cccnc2)sc2c1C(c1ccc(Cl)cc1)=N[C@@H](CC(=O)O)c1nnc(C)n1-2` please.
A) 1860 nM

Q) Report IC50 for `CC(=O)NNC(=O)C[C@@H]1N=C(c2ccc(Cl)cc2)c2c(sc(C#Cc3ccccn3)c2C)-n2c(C)nnc21` please.
A) 202 nM

Q) Report IC50 for `Cc1nnc(C[C@@H]2N=C(c3ccc(Cl)cc3)c3c(sc(C#Cc4ncccc4F)c3C)-n3c(C)nnc32)o1` please.
A) 28.9 nM

Q) Report IC50 for `Cc1c(C#Cc2cnn(C)c2)sc2c1C(c1ccc(Cl)cc1)=N[C@@H](CC(=O)N1CCN(C)CC1)c1nnc(C)n1-2` please.
A) 109 nM

Q) Report IC50 for `Cc1c(C#Cc2cncn2C)sc2c1C(c1ccc(Cl)cc1)=N[C@@H](CC(N)=O)c1nnc(C)n1-2` please.
A) 716 nM

Q) Report IC50 for `CCNC(=O)C[C@@H]1N=C(c2ccc(Cl)cc2)c2c(sc(C#Cc3cncn3C)c2C)-n2c(C)nnc21` please.
A) 203 nM

Next:
Q) Report IC50 for `Cc1nnc(C[C@@H]2N=C(c3ccc(Cl)cc3)c3c(sc(C#CC(C)C)c3C)-n3c(C)nnc32)o1` please.
A) 7.7 nM

Q) Report IC50 for `CNC(=O)CCn1cc(C#Cc2sc3c(c2C)C(c2ccc(Cl)cc2)=N[C@@H](C)c2nnc(C)n2-3)cn1` please.
A) 40 nM

Q) Report IC50 for `Cc1c(C#Cc2ccccn2)sc2c1C(c1ccc(Cl)cc1)=N[C@@H](CC(=O)N1CCOCC1)c1nnc(C)n1-2` please.
A) 60.7 nM

Q) Report IC50 for `Cc1c(C#Cc2cnn(CCCC(=O)O)c2)sc2c1C(c1ccc(Cl)cc1)=N[C@@H](C)c1nnc(C)n1-2` please.
A) 1030 nM

Q) Report IC50 for `Cc1c(C#Cc2ccccn2)sc2c1C(c1ccc(Cl)cc1)=N[C@@H](CC(=O)N1CCC(C)(O)CC1)c1nnc(C)n1-2` please.
A) > 10000 nM

Q) Report IC50 for `Cc1c(C#Cc2ccccn2)sc2c1C(c1ccc(Cl)cc1)=N[C@@H](CC(C)C)c1nnc(C)n1-2` please.
A) 400 nM

---

Assay: Plasma exposure after oral gavage in mice, LC-MS/MS
Type: in vivo
Conditions: mouse, plasma; mice, oral gavage 25 mg/kg, 1 h; read-out: Plasma concentration (ng/mL) 1 h
metric: concentration at 1 h (ng/mL)
Field format: number, assumed ng/mL, no unit text.

Answered cases to consult:
Q) Report concentration at 1 h for `Cc1nnc(C[C@@H]2N=C(c3ccc(Cl)cc3)c3c(sc(C#CC4CCNCC4)c3C)-n3c(C)nnc32)o1` please.
A) 56

Q) Report concentration at 1 h for `Cc1c(C#CC2CCOCC2)sc2c1C(c1ccc(Cl)cc1)=N[C@@H](CC(=O)N1CC(C)(O)C1)c1nnc(C)n1-2` please.
A) 3380

Please turn your attention to the following entry.
Q) Report concentration at 1 h for `Cc1c(C#Cc2ccccn2)sc2c1C(c1ccc(Cl)cc1)=N[C@@H](CC(N)=O)c1nnc(C)n1-2` please.
A) 2170
